Value source: paper PMC7408349

Assay: in vitro
Settings: human
Listed compounds paired with reported selectivity ratio at 72 h

Compound | selectivity ratio at 72 h
CC[C@@]1([C@@H]2O[C@@H]([C@H]3O[C@@](O)(CO)[C@H](C)C[C@@H]3C)C[C@@H]2C)CC[C@H]([C@]2(C)CC[C@]3(C[C@H](O)[C@@H](C)[C@@H]([C@@H](C)[C@@H](OC)[C@H](C)C(=O)O)O3)O2)O1 [MON, monensin] | 3.35
C=C(C)[C@@H]1CC[C@]2(C(=O)O)CC[C@]3(C)[C@H](CC[C@@H]4[C@@]5(C)CC[C@H](OC(=O)OCc6cn([C@H]7C=C[C@]8(O[C@H]([C@@H](CC)C(=O)[C@@H](C)[C@@H](O)[C@H](C)[C@@H]9O[C@@H]([C@@H](CC)C(=O)O)CC[C@@H]9C)[C@@H](C)C[C@H]8C)O[C@@]78CC[C@@](C)([C@H]7CC[C@](O)(CC)[C@H](C)O7)O8)nn6)C(C)(C)[C@@H]5CC[C@]43C)[C@@H]12 [compound 20, Salinomycin-betulinic acid dimer] | 0.62
CC[C@@H](C(=O)[C@@H](C)[C@@H](O)[C@H](C)[C@@H]1O[C@@H]([C@@H](CC)C(=O)O)CC[C@@H]1C)[C@H]1O[C@]2(C=C[C@@H](O)[C@]3(CC[C@@](C)([C@H]4CC[C@](O)(CC)[C@H](C)O4)O3)O2)[C@H](C)C[C@@H]1C [SAL, salinomycin] | 2.1
C=C(C)[C@@H]1CC[C@]2(C(=O)NCc3cn([C@H]4C=C[C@]5(O[C@H]([C@@H](CC)C(=O)[C@@H](C)[C@@H](O)[C@H](C)[C@@H]6O[C@@H]([C@@H](CC)C(=O)O)CC[C@@H]6C)[C@@H](C)C[C@H]5C)O[C@@]45CC[C@@](C)([C@H]4CC[C@](O)(CC)[C@H](C)O4)O5)nn3)CC[C@]3(C)[C@H](CC[C@@H]4[C@@]5(C)CC[C@H](O)C(C)(C)[C@@H]5CC[C@]43C)[C@@H]12 [compound 18, Salinomycin-betulinic acid dimer] | 0.73
